Each recorded value in this set is attributed to PubChem BioAssay AID887.

As shown below, each of these compounds has a reported Potency value.
- ASSAY_SYSTEM: Polyunsaturated fatty acid lipoxygenase ALOX15 (Homo sapiens) (UniProt P16050)
- Sequence (P16050 whole entry, looked up): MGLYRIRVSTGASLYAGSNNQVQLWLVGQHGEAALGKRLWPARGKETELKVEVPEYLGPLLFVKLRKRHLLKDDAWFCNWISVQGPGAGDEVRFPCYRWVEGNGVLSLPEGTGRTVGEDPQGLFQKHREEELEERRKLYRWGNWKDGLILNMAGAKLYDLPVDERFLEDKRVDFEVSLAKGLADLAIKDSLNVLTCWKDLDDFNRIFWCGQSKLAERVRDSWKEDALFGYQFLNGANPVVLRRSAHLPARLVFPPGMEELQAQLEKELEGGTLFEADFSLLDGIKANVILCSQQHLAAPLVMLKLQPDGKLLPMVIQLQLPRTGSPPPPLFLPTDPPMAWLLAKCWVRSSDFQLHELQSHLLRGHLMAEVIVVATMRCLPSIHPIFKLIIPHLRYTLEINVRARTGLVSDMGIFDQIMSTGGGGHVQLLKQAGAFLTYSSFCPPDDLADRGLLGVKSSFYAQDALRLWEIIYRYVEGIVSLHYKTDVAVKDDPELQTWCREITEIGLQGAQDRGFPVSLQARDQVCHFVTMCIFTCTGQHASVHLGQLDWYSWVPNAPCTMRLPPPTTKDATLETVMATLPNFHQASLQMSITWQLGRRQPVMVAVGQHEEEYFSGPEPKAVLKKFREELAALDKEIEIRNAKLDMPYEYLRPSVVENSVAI
- MEASUREMENT_DESCRIPTION: qHTS Assay for Inhibitors of 15-hLO (15-human lipoxygenase); note: nearly all actives have a fitted effect of over 55% in size; note: potency is the fitted concentration of half-maximal effect
- EXPERIMENTAL_CONDITIONS: purified 15hLO-1, xylenol orange hydroperoxide absorbance; series mostly up to 57.1 µM
Screen size: about 74,000 compounds; about 1,100 (1.5%) were called active. Inconclusive results (about 5%) are left out. Only a selection was taken, and actives are over-represented in it overall.

Worked examples, 2 compounds total:
> print(dat)
                                   compound                              assay.system  reported.property  recorded.measurement
1  Cc1cc(C(=O)Nc2c(C)n(C)n(-c3ccccc3)c2=O)cs1  Polyunsaturated fatty acid lipoxygenase ALOX15 (Homo sapiens) (UniProt P16050)            Potency      1580 nM (active)
2          Cc1cc(C)c2nc(N3CCCC3)c(C#N)cc2c1  Polyunsaturated fatty acid lipoxygenase ALOX15 (Homo sapiens) (UniProt P16050)            Potency      2000 nM (active)

### Prompt Dear colleague, please send me the reported Potency for CCCSC1=C(C#N)C(c2ccccc2C)C(C(=O)OC)C(=O)N1 (stereo not given) when you can.
### Response 12600 nM (active)

### Prompt Dear colleague, please send me the reported Potency for CCCc1[nH]nc2c1C(c1ccc(Br)s1)C(C#N)=C(N)O2 (stereo not given) when you can.
### Response 15800 nM (active)

### Prompt Dear colleague, please send me the reported Potency for COc1ccc(OC)c(Nc2nc(-c3ccc(O)c(O)c3)cs2)c1 when you can.
### Response 126 nM (active)

---

- ASSAY_SYSTEM: Polyunsaturated fatty acid lipoxygenase ALOX15 (Homo sapiens)
- MEASUREMENT_DESCRIPTION: qHTS Assay for Inhibitors of 15-hLO (15-human lipoxygenase); note: nearly all actives have a fitted effect of over 55% in size; note: potency is the fitted concentration of half-maximal effect
- EXPERIMENTAL_CONDITIONS: purified 15hLO-1, xylenol orange hydroperoxide absorbance; series mostly up to 57.1 µM
In all, about 74,000 compounds went through this assay and about 1,100 (1.5%) were called active. Another 5% or so got no clear call; they are omitted. Only a selection was taken, and actives are over-represented in it overall.
REPORTED_PROPERTY: Potency

Worked examples, 6 molecules total:
> print(dat)
                                   molecule                              assay.system  recorded.measurement
1  CC(C)c1ccc2c(c1)c(SC(C)(C)C)c(CC(C)(C)C(=O)O)n2Cc1ccc(Cl)cc1  Polyunsaturated fatty acid lipoxygenase ALOX15 (Homo sapiens)      12.6 µM (active)
2  COc1ccc(-c2nnc(SC(=O)N3c4ccccc4Sc4ccccc43)o2)cc1  Polyunsaturated fatty acid lipoxygenase ALOX15 (Homo sapiens)      3.16 µM (active)
3  O=C(CSc1nnc(-c2ccco2)n1-c1ccccc1)NCCc1ccccc1  Polyunsaturated fatty acid lipoxygenase ALOX15 (Homo sapiens)      6.31 µM (active)
4  Cc1ccc(S(=O)(=O)C(C#N)c2nc3ccccc3nc2N2CCCC2)cc1C (stereo not given)  Polyunsaturated fatty acid lipoxygenase ALOX15 (Homo sapiens)      12.6 µM (active)
5  CCCCc1nc2ccccc2c(NC(=O)CN2CCN(C)CC2)c1CCC  Polyunsaturated fatty acid lipoxygenase ALOX15 (Homo sapiens)      15.8 µM (active)
6  O=C(CSc1nc2[nH]ncc2c(=O)n1-c1ccccc1)N1CCCc2ccccc21  Polyunsaturated fatty acid lipoxygenase ALOX15 (Homo sapiens)      15.8 µM (active)

### Prompt Dear colleague, please send me the reported Potency for CSc1sc(C)cc1C1C(C#N)=C(N)N(c2cccnc2)C2=C1C(=O)CCC2 (stereo not given) when you can.
### Response 15.8 µM (active)

### Prompt Dear colleague, please send me the reported Potency for Cc1ccnc(-n2sc3ccccc3c2=O)n1 when you can.
### Response 20 µM (active)

### Prompt Dear colleague, please send me the reported Potency for CCCCn1c(SCC(=O)NCC2CCCO2)nc2ccc(N3CCOCC3)cc2c1=O (stereo not given) when you can.
### Response 12.6 µM (active)

### Prompt Dear colleague, please send me the reported Potency for CC[C@@H]1Cc2cc(O)ccc2C2=C1c1ccc(O)cc1C[C@H]2CC when you can.
### Response 10 µM (active)

---

- ASSAY_SYSTEM: Polyunsaturated fatty acid lipoxygenase ALOX15 (Homo sapiens) (UniProt P16050)
- MEASUREMENT_DESCRIPTION: qHTS Assay for Inhibitors of 15-hLO (15-human lipoxygenase); note: nearly all actives have a fitted effect of over 55% in size; for activity change, negative = inhibition: % is set by controls: 0 for no effect and ±100 for the full control effect
- EXPERIMENTAL_CONDITIONS: purified 15hLO-1, xylenol orange hydroperoxide absorbance; series mostly up to 57.1 µM
The campaign covered roughly 74,000 compounds. About 1,100 (1.5%) were called active. Not shown: some 5% with an inconclusive outcome. The full list was thinned out, with actives kept by preference.
REPORTED_PROPERTY: activity change, negative = inhibition

COMPOUND	REPORTED_PROPERTY	RECORDED_MEASUREMENT
CCOc1ccc2[nH]c(=O)c(CN(Cc3nnnn3CCc3ccccc3)CC3CCCO3)cc2c1 (configuration not stated)	activity change, negative = inhibition	inactive
c1ccc(Oc2ccccc2)cc1	activity change, negative = inhibition	inactive
Cc1cccc(C)c1NC(=O)CCCSc1nnc(-c2ccco2)n1-c1ccccc1	activity change, negative = inhibition	inactive
CC(C)=CCC/C(C)=C/CO/N=C1/C[C@@H](O)[C@@H](O)[C@@H]2[C@@H]3C(=O)N(C(C)(C)C)C(=O)[C@H]3CC[C@H]12	activity change, negative = inhibition	-9.71% [at 11.4 µM] (inactive)
COc1ccc(/C=C/NC(=O)c2ccc(OC)cc2)cc1	activity change, negative = inhibition	-5.84% [at 11.4 µM] (inactive)
CC1(C)OC2CO[C@]3(COS(N)(=O)=O)OC(C)(C)OC3C2O1 (some centres not stated)	activity change, negative = inhibition	inactive
C=C[C@](C)(O)CCC1C(=C)CCC2[C@@](C)(CO)CCC[C@@]12C (some centres not stated)	activity change, negative = inhibition	inactive
COc1ccc(Oc2ncc3nc(C)c(=O)n(-c4ccccc4)c3n2)cc1	activity change, negative = inhibition	inactive
O=C1OCCC=C1[C@@H](O)CCc1ccccc1	activity change, negative = inhibition	9.13% [at 11.4 µM] (inactive)
COc1ccc(/C=C/C(=O)c2ccc(OC)cc2O)cc1	activity change, negative = inhibition	-1.36% [at 11.4 µM] (inactive)

### Prompt Dear colleague, please send me the reported activity change, negative = inhibition for Cc1nc2ccccc2c(=O)n1CCCn1ccnc1 when you can.
### Response inactive

### Prompt Dear colleague, please send me the reported activity change, negative = inhibition for CC(C)CO/N=C1/C[C@@H](O)[C@@H](O)[C@@H]2[C@@H]3C(=O)N(C[C@@H]4CCCO4)C(=O)[C@H]3CC[C@@H]12 when you can.
### Response 9.84% [at 11.4 µM] (inactive)

---

- ASSAY_SYSTEM: Polyunsaturated fatty acid lipoxygenase ALOX15 (Homo sapiens)
- MEASUREMENT_DESCRIPTION: qHTS Assay for Inhibitors of 15-hLO (15-human lipoxygenase); note: nearly all actives have a fitted effect of over 55% in size; for activity change, negative = inhibition: % is set by controls: 0 for no effect and ±100 for the full control effect
- EXPERIMENTAL_CONDITIONS: purified 15hLO-1, xylenol orange hydroperoxide absorbance; series mostly up to 57.1 µM
Screen size: about 74,000 compounds; about 1,100 (1.5%) were called active. Inconclusive results (about 5%) are left out. Many of the other results were omitted from the sample, so actives are more common in it than they were.
REPORTED_PROPERTY: activity change, negative = inhibition

> print(dat)
                                   molecule            recorded.measurement
1  CCCc1[nH]nc2c1C(c1ccc(OC(=O)c3ccco3)cc1)C(C#N)=C(N)O2 (configuration not stated)                        inactive
2   O=C(c1ccco1)N1CCC2(CC1)CCN(c1ncccn1)CC2                        inactive
3                   O=C1NS(=O)(=O)c2ccccc21                        inactive
4  CCCc1[nH]nc2c1C(C1CC=CCC1)C(C#N)=C(N)O2 (configuration not stated)                        inactive
5              COCn1c(COc2ccccc2)nc2ccccc21  -9.11% [at 11.4 µM] (inactive)
6  O=C(O)C(O)[C@@](O)(Cc1ccc(O)cc1)C(=O)O (some centres not stated)                        inactive

### Prompt Dear colleague, please send me the reported activity change, negative = inhibition for CN1CC(=O)N=C1N when you can.
### Response inactive

### Prompt Dear colleague, please send me the reported activity change, negative = inhibition for CC1CCc2c(sc3c2C2=NS(=O)(=O)CCN2C=N3)C1 (configuration not stated) when you can.
### Response inactive

### Prompt Dear colleague, please send me the reported activity change, negative = inhibition for COC(=O)CSC1=C(C#N)C(c2ccccc2OC)C(C(=O)OC)C(=O)N1 (configuration not stated) when you can.
### Response -4.29% [at 11.4 µM] (inactive)

### Prompt Dear colleague, please send me the reported activity change, negative = inhibition for CCOC(=O)CSC1=C(C#N)C(c2sccc2C)CC(=O)N1 (configuration not stated) when you can.
### Response inactive

### Prompt Dear colleague, please send me the reported activity change, negative = inhibition for CN(C)CCc1c[nH]c2ccc(Cn3cncn3)cc12 when you can.
### Response inactive

### Prompt Dear colleague, please send me the reported activity change, negative = inhibition for CC(C)OC(=O)C(C#N)c1nc2ccccc2nc1N1CCN(Cc2ccccc2)CC1 (configuration not stated) when you can.
### Response inactive
